Numbers sourced from ChEMBL document CHEMBL1133784.

tested-system: NS3 (Hepatitis C virus, UniProt A3EZJ3)
Sequence (A3EZJ3 whole entry): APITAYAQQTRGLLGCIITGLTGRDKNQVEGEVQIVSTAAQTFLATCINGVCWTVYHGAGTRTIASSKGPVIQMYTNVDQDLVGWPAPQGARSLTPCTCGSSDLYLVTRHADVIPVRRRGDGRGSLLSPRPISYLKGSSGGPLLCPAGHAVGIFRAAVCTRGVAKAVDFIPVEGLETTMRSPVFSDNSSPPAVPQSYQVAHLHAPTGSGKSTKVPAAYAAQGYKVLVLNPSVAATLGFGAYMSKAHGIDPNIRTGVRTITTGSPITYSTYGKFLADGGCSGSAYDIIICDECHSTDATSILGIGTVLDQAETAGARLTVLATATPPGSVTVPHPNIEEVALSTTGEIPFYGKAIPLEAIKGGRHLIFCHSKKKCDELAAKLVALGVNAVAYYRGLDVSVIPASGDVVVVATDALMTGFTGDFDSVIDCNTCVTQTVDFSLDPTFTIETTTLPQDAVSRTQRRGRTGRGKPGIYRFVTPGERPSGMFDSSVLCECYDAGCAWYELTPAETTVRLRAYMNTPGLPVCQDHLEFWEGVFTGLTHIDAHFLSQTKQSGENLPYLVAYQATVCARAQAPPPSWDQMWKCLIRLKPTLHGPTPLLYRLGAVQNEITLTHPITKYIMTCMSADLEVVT
measurement-description: Inhibitory activity against hepatitis C virus (HCV) NS3 protease (full-length)
Design: species or system Hepacivirus hominis
pKi: −log10 of the molar value.
experimental-endpoint: pKi

> print(dat)
      substance                            tested.system  numeric.readout
1  Ac-DEMEEC-OH  NS3 (Hepatitis C virus, UniProt A3EZJ3)             6.44
